- TEST_METHOD_NOTES: Cytotoxicity against Homo sapiens (human) prostate cancer cells after 48 hr by SRB assay
- Format: functional
- CONDITION_DETAILS: Cancer cell lines
For each record, check the reported GI50: if it is below 30 µM write met, else write not met.

Please review the entries below; each comes with its answer.
In [3]: df
Out[3]:
                                   compound  label_value
0  NS(=O)(=O)c1ccc(-n2nc3c(c2-c2cccs2)Cc2ccccc2-3)cc1          met
1  O=S(=O)(/N=c1\scc(-c2ccccc2)n1-c1ccccc1)c1ccc(N2N=C3c4ccccc4CC3C2c2cccs2)cc1 (configuration not stated)      not met
2  O=C(NC(=S)NS(=O)(=O)c1ccc(N2N=C3c4ccccc4CC3C2c2cccs2)cc1)c1ccccc1 (configuration not stated)          met
3  O=C1CS/C(=N\S(=O)(=O)c2ccc(N3N=C4c5ccccc5CC4C3c3cccs3)cc2)N(c2ccccc2)C1 (configuration not stated)      not met
4  O=C(Nc1ccccc1)NS(=O)(=O)c1ccc(N2N=C3c4ccccc4CC3C2c2cccnc2)cc1 (configuration not stated)      not met

Lab note: GI50 threshold 30 µM. Does this compound come in strictly under it? O=S(=O)(NC(=S)Nc1ccccc1)c1ccc(N2N=C3c4ccccc4CC3C2c2cccs2)cc1 (configuration not stated) met

Lab note: GI50 threshold 30 µM. Does this compound come in strictly under it? `O=C(Nc1ccccc1)NS(=O)(=O)c1ccc(-n2nc3c(c2-c2cccs2)Cc2ccccc2-3)cc1` met
